Ref: the supplement of paper PMC9112550

- Test system: Escherichia coli TOP10
- experiment_summary: shrunken log2 fold change of peptide-encoding DNA abundance (4.5 h post-induction vs induction); higher = less antimicrobial activity (less host growth inhibition)
- experimental_context: time post-induction: 4.5 h; library: site-saturation at positions 5, 18, 19, 20
In this scheme, each record receives a class according to its shrunken log2 fold change; the ranges are label 0: < -0.06; label 1: ≥ -0.06 and < 0.2; label 2: ≥ 0.2

residues	class_name
RRIRQRPPRLPRPRPRPDTHPRP	label 0
RRIRERPPRLPRPRPRPWWDPRP	label 1
RRIRTRPPRLPRPRPRPAWPPRP	label 2

Kindly state the category for this sequence: `RRIRVRPPRLPRPRPRPSLWPRP`
label 1

Kindly state the category for this sequence: `RRIRDRPPRLPRPRPRPGLGPRP`
label 2

---

- Test system: Escherichia coli TOP10
- experiment_summary: shrunken log2 fold change of peptide-encoding DNA abundance (4.5 h post-induction vs induction); higher = less antimicrobial activity (less host growth inhibition)
- experimental_context: time post-induction: 4.5 h; library: site-saturation at positions 5, 18, 19, 20
value_type: shrunken log2 fold change

Some solved cases for reference:
residues	shrunken log2 fold change
RRIRDRPPRLPRPRPRPACEPRP	0.58
RRIRVRPPRLPRPRPRPKEFPRP	0.0951
RRIRQRPPRLPRPRPRPNNVPRP	-0.149
RRIRLRPPRLPRPRPRPRKNPRP	0.0496
RRIRPRPPRLPRPRPRPTTKPRP	0.253
RRIRNRPPRLPRPRPRPTRNPRP	0.0941
RRIRERPPRLPRPRPRPSKTPRP	-0.0833
RRIRIRPPRLPRPRPRPRMMPRP	-0.293

Hi! What's the reported shrunken log2 fold change for `RRIRGRPPRLPRPRPRPTEDPRP` on Escherichia coli TOP10?
1.2

Hi! What's the reported shrunken log2 fold change for `RRIRPRPPRLPRPRPRPHNLPRP` on Escherichia coli TOP10?
-0.131

Hi! What's the reported shrunken log2 fold change for `RRIRHRPPRLPRPRPRPDPQPRP` on Escherichia coli TOP10?
0.108

Hi! What's the reported shrunken log2 fold change for `RRIRDRPPRLPRPRPRPANIPRP` on Escherichia coli TOP10?
-0.114

Hi! What's the reported shrunken log2 fold change for `RRIRLRPPRLPRPRPRPAICPRP` on Escherichia coli TOP10?
0.207

Hi! What's the reported shrunken log2 fold change for `RRIRMRPPRLPRPRPRPHPAPRP` on Escherichia coli TOP10?
0.903

---

- Tested on: Escherichia coli TOP10;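 also: peptides expressed intracellularly from a pBAD plasmid library in pooled LB shake-flask culture, induced with 0.3% L-arabinose, DNA abundance read by NGS, three biological replicates, DESeq2 with apeglm shrinkage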
- experiment_summary: shrunken log2 fold change of peptide-encoding DNA abundance (4.5 h post-induction vs induction); higher = less antimicrobial activity (less host growth inhibition)
- experimental_context: time post-induction: 4.5 h; library: site-saturation at positions 5, 18, 19, 20
Values of shrunken log2 fold change greater than or equal to 0.4 map to 1.0; values below map to 0.0.

residues	class_name
RRIRFRPPRLPRPRPRPTVTPRP	0.0
RRIRLRPPRLPRPRPRPICGPRP	0.0
RRIRARPPRLPRPRPRPKEAPRP	1.0

Answer whether shrunken log2 fold change of `RRIRCRPPRLPRPRPRPPFRPRP` is greater than or equal to 0.4.
0.0

Answer whether shrunken log2 fold change of `RRIRDRPPRLPRPRPRPLRPPRP` is greater than or equal to 0.4.
1.0
